These data points were gathered from patent US9708325B2.

# TARGET_OF_ASSAY: human TLR7 (Homo sapiens (Human), UniProt Q9NYK1)
# Sequence (Q9NYK1 27-1049): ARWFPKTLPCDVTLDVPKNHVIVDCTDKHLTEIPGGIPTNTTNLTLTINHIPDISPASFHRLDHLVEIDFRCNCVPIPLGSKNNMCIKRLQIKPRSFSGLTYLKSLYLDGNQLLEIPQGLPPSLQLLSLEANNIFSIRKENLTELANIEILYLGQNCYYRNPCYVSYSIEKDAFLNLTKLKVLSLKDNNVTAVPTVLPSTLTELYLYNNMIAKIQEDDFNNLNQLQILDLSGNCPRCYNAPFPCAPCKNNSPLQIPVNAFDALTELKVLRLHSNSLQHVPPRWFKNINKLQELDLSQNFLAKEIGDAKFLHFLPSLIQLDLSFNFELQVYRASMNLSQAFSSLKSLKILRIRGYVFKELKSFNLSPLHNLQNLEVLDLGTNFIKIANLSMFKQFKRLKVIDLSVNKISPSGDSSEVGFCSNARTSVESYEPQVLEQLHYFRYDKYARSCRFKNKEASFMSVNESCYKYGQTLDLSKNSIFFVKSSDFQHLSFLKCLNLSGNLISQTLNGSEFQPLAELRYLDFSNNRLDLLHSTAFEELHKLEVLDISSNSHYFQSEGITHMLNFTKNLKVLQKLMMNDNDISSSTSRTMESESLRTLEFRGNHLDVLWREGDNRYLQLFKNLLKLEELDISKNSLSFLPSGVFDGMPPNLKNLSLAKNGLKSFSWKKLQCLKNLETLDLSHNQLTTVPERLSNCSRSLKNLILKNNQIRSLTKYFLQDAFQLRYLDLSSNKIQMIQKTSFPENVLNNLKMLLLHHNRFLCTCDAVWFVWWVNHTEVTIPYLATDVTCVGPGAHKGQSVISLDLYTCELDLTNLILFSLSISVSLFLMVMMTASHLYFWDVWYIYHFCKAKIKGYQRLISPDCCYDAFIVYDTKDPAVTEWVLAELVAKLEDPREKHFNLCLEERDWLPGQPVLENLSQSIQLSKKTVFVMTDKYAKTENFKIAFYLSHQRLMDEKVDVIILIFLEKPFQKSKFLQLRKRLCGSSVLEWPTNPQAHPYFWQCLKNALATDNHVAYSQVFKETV
# PROCEDURE_TEXT: HEK-Blue-hTLR7 cells assay (SEAP reporter)
# Type: cell-based
# TEST_CONDITIONS: 20 hrs, read-out: HEK-Blue-hTLR7 (EC50 (μM))
Field 'label' (enum: class 1 / class 0). Set to class 1 when EC50 is strictly under 0.04 µM; else class 0.

Some entries whose results are on file:
MOLECULE: COc1ccc(Cn2c(=O)[nH]c3c(N)nc(S(=N)(=O)CCCCl)nc32)cc1 (stereo not shown)
TARGET_OF_ASSAY: human TLR7 (Homo sapiens (Human), UniProt Q9NYK1)
GROUP: class 0
//
MOLECULE: CCS(=N)(=O)c1nc(N)c2[nH]c(=O)n(Cc3ccc(C)cc3)c2n1 (stereo not shown)
TARGET_OF_ASSAY: human TLR7 (Homo sapiens (Human), UniProt Q9NYK1)
GROUP: class 0
//
MOLECULE: CCCS(=N)(=O)c1nc(N)c2[nH]c(=O)n(Cc3cncnc3)c2n1 (stereo not shown)
TARGET_OF_ASSAY: human TLR7 (Homo sapiens (Human), UniProt Q9NYK1)
GROUP: class 0
//
MOLECULE: CCCS(=N)(=O)c1nc(N)c2[nH]c(=O)n(Cc3ccc(Cl)c(C)c3)c2n1 (stereo not shown)
TARGET_OF_ASSAY: human TLR7 (Homo sapiens (Human), UniProt Q9NYK1)
GROUP: class 1
//
MOLECULE: CCCS(=N)(=O)c1nc(N)c2[nH]c(=O)n(Cc3ccc(C(=O)N4CCCC4)cc3)c2n1 (stereo not shown)
TARGET_OF_ASSAY: human TLR7 (Homo sapiens (Human), UniProt Q9NYK1)
GROUP: class 0
//
MOLECULE: CS(=N)(=O)c1nc(N)c2[nH]c(=O)n(Cc3ccc(Cl)cc3)c2n1 (stereo not shown)
TARGET_OF_ASSAY: human TLR7 (Homo sapiens (Human), UniProt Q9NYK1)
GROUP: class 0

Now for another entry.
Dear colleague, could you confirm whether EC50 of N=S(=O)(CC(F)(F)F)c1nc(N)c2[nH]c(=O)n(Cc3ccccc3)c2n1 (stereo not shown) falls below 0.04 µM? Thanks.
class 0

====

Let's look at some molecules and their measured Human Liver Microsome Clearance.
# PROCEDURE_TEXT: Metabolic stability in human liver microsomes
# TEST_CONDITIONS: 1 μM test compound, 0.5 mg/mL microsomal protein; 6.15 mL/min/kg is the limitation of assay sensitivity

Which Human Liver Microsome Clearance value belongs to CCCS(=N)(=O)c1nc(N)c2[nH]c(=O)n(Cc3ccc(C(=O)O)cc3)c2n1 (stereo not drawn) [Example 39] ?
<6.15 mL/min/kg

Now this one: CCCS(=N)(=O)c1nc(N)c2[nH]c(=O)n(Cc3ccccc3)c2n1 (stereo not drawn) [Example 4]
<6.15 mL/min/kg

Now the molecule CCCS(=N)(=O)c1nc(N)c2[nH]c(=O)n(Cc3ccc(C)nc3)c2n1 (stereo not drawn) [Example 34]
<6.15 mL/min/kg

====

# PROCEDURE_TEXT: LYSA solubility
# Format: physicochemical
# TEST_CONDITIONS: 0.05 M phosphate buffer (pH 6.5)
MEASURED_PARAMETER: LYSA (µg/mL)
# number only, unit µg/mL dropped from output

Use these answered entries as a reference point.
MOLECULE: CS(=O)(=O)c1nc(N)c2[nH]c(=O)n(Cc3ccccc3)c2n1 [Example S-1, reference compound]
UNIT_ABBREVIATION: µg/mL
LYSA: 0.5
--
MOLECULE: CCCS(=N)(=O)c1nc(N)c2[nH]c(=O)n(Cc3ccccc3)c2n1 (single isomer, unassigned)
UNIT_ABBREVIATION: µg/mL
LYSA: 50
--
MOLECULE: CCS(=N)(=O)c1nc(N)c2[nH]c(=O)n(Cc3ccc(F)cc3)c2n1 (single isomer, unassigned)
UNIT_ABBREVIATION: µg/mL
LYSA: 115
--
MOLECULE: CCCS(=N)(=O)c1nc(N)c2[nH]c(=O)n(Cc3ccc(C)cc3)c2n1 (single isomer, unassigned)
UNIT_ABBREVIATION: µg/mL
LYSA: 11
--
MOLECULE: CCS(=N)(=O)c1nc(N)c2[nH]c(=O)n(Cc3ccc(C)cc3)c2n1 (single isomer, unassigned)
UNIT_ABBREVIATION: µg/mL
LYSA: 13

If you can, please state the reported LYSA value of CS(=N)(=O)c1nc(N)c2[nH]c(=O)n(Cc3ccccc3)c2n1 (single isomer, unassigned) .
85

====

# PROCEDURE_TEXT: Single dose PK after 1 mg/kg intravenous dosing to rat
# Format: in vivo, Male Wister-Han Rats
# TEST_CONDITIONS: male, Wistar-Han, plasma, iv, 1 mg/kg, IV 1 mpk, 0.25 h
# Experimental: The single dose PK in Male Wister-Han Rats was performed to assess pharmacokinetic properties of tested compounds. Two groups of animals were dosed via bolus intravenous (IV) of the respective compound. Blood samples (approximately 20 μL) were collected via Jugular vein or an alternate site at 5 min, 15 min, 30 min, 1 hr, 2 hr, 4 hr, 7 hr and 24 hr post-dose for IV group. […] The pharmacokinetic parameters were calculated using non-compartmental module of WinNonlin® Professional 6.2. […]
List of concentration at 0.25 h values.
Give a bare numeral; the unit nM is implied.

COMPOUND: CCS(=N)(=O)c1nc(N)c2[nH]c(=O)n(Cc3ccc(Cl)cc3)c2n1 (single isomer, unassigned)
concentration at 0.25 h (nM): 1340

What does the record list as concentration at 0.25 h for CCS(=N)(=O)c1nc(N)c2[nH]c(=O)n(Cc3ccc(C)cc3)c2n1 (single isomer, unassigned) ?
1000

====

# Tested on: CYP3A4
# PROCEDURE_TEXT: Cytochrome P450 induction screening assay, mRNA induction in human cryopreserved hepatocytes
# Type: in vitro ADME
# TEST_CONDITIONS: 24 hours exposure
MEASURED_PARAMETER: Relative induction of Positive control (10 μM Rifampicin) (%)
Please give a number only; it is taken to be in %.

COMPOUND: CCS(=N)(=O)c1nc(N)c2[nH]c(=O)n(Cc3ccc(Cl)cc3)c2n1 (single isomer, unassigned) [Example 70-A]
TARGET_OF_ASSAY: CYP3A4
UNIT_ABBREVIATION: %
MEASURED_NUMBER: 0.42

Returns the measured Relative induction of Positive control (10 μM Rifampicin) (%) for the input compound. Input: CCCS(=N)(=O)c1nc(N)c2[nH]c(=O)n(Cc3ccccc3)c2n1 (single isomer, unassigned) [Example 4-A]
−0.63

Check CCS(=N)(=O)c1nc(N)c2[nH]c(=O)n(Cc3ccc(Cl)cc3)c2n1 (single isomer, unassigned) [Example 70-B] too.
−0.42

Subsequent entry: CCS(=N)(=O)c1nc(N)c2[nH]c(=O)n(Cc3ccc(C)cc3)c2n1 (single isomer, unassigned) [Example 71-A]
−0.10

What do you get for CCCS(=N)(=O)c1nc(N)c2[nH]c(=O)n(Cc3ccc(F)cc3)c2n1 (stereo not drawn) [Example 24] ?
−0.72

And then CCCS(=N)(=O)c1nc(N)c2[nH]c(=O)n(Cc3ccccc3)c2n1 (single isomer, unassigned) [Example 4-B] , what is it?
−0.90

====

Listed here: items and their measured concentration at 1 h.
# PROCEDURE_TEXT: Single dose PK after 1 mg/kg intravenous dosing to rat
# Format: in vivo, Male Wister-Han Rats
# TEST_CONDITIONS: male, Wistar-Han, plasma, iv, 1 mg/kg, IV 1 mpk, 1 h
Just the number in nM, nothing appended.

MOLECULE: CCS(=N)(=O)c1nc(N)c2[nH]c(=O)n(Cc3ccc(Cl)cc3)c2n1 (single isomer, unassigned)
UNIT_ABBREVIATION: nM
MEASURED_NUMBER: 354

Read the next record carefully.
I have this molecule here, CCS(=N)(=O)c1nc(N)c2[nH]c(=O)n(Cc3ccc(C)cc3)c2n1 (single isomer, unassigned) , and I need its recorded concentration at 1 h.
292

====

# PROCEDURE_TEXT: Single dose PK after 1 mg/kg intravenous dosing to rat
# Format: in vivo, Male Wister-Han Rats
# TEST_CONDITIONS: male, Wistar-Han, plasma, iv, 1 mg/kg, IV 1 mpk, 2 h
Quick reference for concentration at 2 h among some compounds
Kindly answer with a numeric value in nM, unit omitted.

COMPOUND: CCS(=N)(=O)c1nc(N)c2[nH]c(=O)n(Cc3ccc(Cl)cc3)c2n1 (single isomer, unassigned)
concentration at 2 h [nM]: 110

Which measured concentration at 2 h value corresponds to CCS(=N)(=O)c1nc(N)c2[nH]c(=O)n(Cc3ccc(C)cc3)c2n1 (single isomer, unassigned) ?
115

====

# PROCEDURE_TEXT: Single dose PK after 1 mg/kg intravenous dosing to rat
# Type: in vivo, Male Wister-Han Rats
# TEST_CONDITIONS: male, Wistar-Han, plasma, iv, 1 mg/kg, IV 1 mpk, 0.083 h
MEASURED_PARAMETER: concentration at 0.083 h (nM)
Response body: numeric value in nM, unit text excluded.

COMPOUND: CCS(=N)(=O)c1nc(N)c2[nH]c(=O)n(Cc3ccc(C)cc3)c2n1 (single isomer, unassigned) [Example 71-A]
MEASURED_PARAMETER: concentration at 0.083 h
UNIT_ABBREVIATION: nM
MEASURED_NUMBER: 1850

Entry under review: CCS(=N)(=O)c1nc(N)c2[nH]c(=O)n(Cc3ccc(Cl)cc3)c2n1 (single isomer, unassigned) [Example 70-A] . Reported concentration at 0.083 h?
3050
